target: BACE1 (Homo sapiens); assay: In Vitro Enzymatic BACE FRET (Fluorescence Resonance Energy Transfer) Assay; assay type: biochemical; details: Table III; IC50's in uM ranges; read-out: BACE1 FRET assay
Sequence (P56817 46-501, species assumed): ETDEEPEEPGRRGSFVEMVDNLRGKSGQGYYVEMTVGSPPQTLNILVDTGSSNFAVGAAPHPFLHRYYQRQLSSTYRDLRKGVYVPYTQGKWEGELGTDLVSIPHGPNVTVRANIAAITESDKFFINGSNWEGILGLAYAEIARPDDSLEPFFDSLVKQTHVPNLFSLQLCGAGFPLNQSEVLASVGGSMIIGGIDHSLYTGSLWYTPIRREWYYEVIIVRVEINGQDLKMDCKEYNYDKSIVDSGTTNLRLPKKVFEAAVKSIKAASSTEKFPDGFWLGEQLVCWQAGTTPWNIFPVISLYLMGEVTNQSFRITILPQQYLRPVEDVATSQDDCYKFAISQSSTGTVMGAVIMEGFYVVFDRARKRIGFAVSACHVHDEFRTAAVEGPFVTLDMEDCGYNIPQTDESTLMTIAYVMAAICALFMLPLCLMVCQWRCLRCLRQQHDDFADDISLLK
Quick reference for IC50 among some compounds

Worked examples follow.
[[record]]
compound = "CC(C)(C)C#Cc1ccc2c(c1)[C@@]1(COC(N)=N1)c1cc(-c3cccnc3)cnc1O2"
test_result = "< 0.1 µM"

[[record]]
compound = "NC1=N[C@]2(CO1)c1cc(OCC3CCOCC3)ccc1Oc1ccc(-c3cncnc3)cc12"
test_result = "< 0.1 µM"

[[record]]
compound = "CC(C)(C)COc1ccc2c(c1)[C@@]1(COC(N)=N1)c1cc(C(=O)N3CCCC3)ccc1O2 [218a]"
test_result = "0.1 to 1 µM"


In the following, a different compound is considered.
Provide measured IC50 value, entry: CC(C)(C)C#Cc1ccc2c(c1)[C@]1(COC(N)=N1)c1cc(-c3ccc(F)nc3)ccc1O2 [147a]
< 0.1 µM
